These entries and their values trace back to ChEMBL document CHEMBL1148382.

Let's look at some compounds and their measured IC50.
Biological target: Acetylcholinesterase (Homo sapiens, UniProt P22303)
Sequence (P22303 whole entry): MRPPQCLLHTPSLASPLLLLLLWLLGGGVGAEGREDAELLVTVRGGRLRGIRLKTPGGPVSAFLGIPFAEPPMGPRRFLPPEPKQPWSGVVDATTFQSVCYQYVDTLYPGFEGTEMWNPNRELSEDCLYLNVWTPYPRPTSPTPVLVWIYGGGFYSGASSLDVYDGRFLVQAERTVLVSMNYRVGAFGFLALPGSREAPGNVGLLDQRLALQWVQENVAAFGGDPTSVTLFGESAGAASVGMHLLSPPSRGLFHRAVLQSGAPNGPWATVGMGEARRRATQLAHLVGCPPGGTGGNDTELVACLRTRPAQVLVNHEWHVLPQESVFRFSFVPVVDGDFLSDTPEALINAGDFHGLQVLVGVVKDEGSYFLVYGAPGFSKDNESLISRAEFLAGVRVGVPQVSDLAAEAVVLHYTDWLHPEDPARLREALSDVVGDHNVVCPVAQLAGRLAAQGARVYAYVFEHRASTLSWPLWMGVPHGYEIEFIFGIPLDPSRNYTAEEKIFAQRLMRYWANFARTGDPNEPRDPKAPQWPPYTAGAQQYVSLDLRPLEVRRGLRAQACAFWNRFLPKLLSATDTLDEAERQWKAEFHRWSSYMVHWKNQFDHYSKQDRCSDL
Experiment: Inhibitory concentration against acetylcholinesterase
Numbers only; they are read as nM.

The examples below pair each entry with its known result.
| record.smiles | measurement.name | reading |
| --- | --- | --- |
| COc1ccc(-c2nc(SC)n(C(=O)N(C)C)n2)cc1 | IC50 | 800 |
| CSc1nc(-c2ccc(C(F)(F)F)cc2)nn1C(=O)N(C)C | IC50 | 500 |
| CCSc1nc(-c2ccc(OC)cc2)nn1C(=O)N(C)c1ccccc1 | IC50 | 1100 |
| CSc1nc(-c2ccc3ccccc3c2)nn1C(=O)N(C)C | IC50 | 50 |
| CSc1nc(-c2ccc(C)cc2)nn1C(=O)N(C)C | IC50 | 800 |
| CSc1nc(-c2ccc(Cl)cc2)nn1C(=O)N(C)C | IC50 | 100 |
| CCSc1nc(-c2ccc(Cl)cc2)nn1C(=O)N(C)C | IC50 | 56 |
| O=C(N1CCCCC1)n1nc(-c2ccc(Cl)cc2)nc1SCC1CC1 | IC50 | 100 |

Note down IC50 recorded for Cc1c(C(C)C)c(=O)on1C(=O)N1CCC[C@H](C)C1
17000

Note down IC50 recorded for Cc1ccc(-c2nc(SCC(F)(F)F)n(C(=O)N(C)C)n2)cc1
200

Note down IC50 recorded for O=C(N1CCCCC1)n1nc(-c2ccc(Cl)cc2)nc1SCC(F)(F)F
300

Note down IC50 recorded for CSc1nc(-c2ccc(Cl)cc2)nn1C(=O)N1CCCCC1
26

Note down IC50 recorded for CSc1nc(-c2ccc(-c3ccccc3)cc2)nn1C(=O)N(C)C
560

Note down IC50 recorded for CCCSc1nc(-c2ccc(Cl)cc2)nn1C(=O)N(C)C
300

Note down IC50 recorded for CCOc1nn(-c2cccc(OCc3ccccc3)c2)c(=O)o1
750

Note down IC50 recorded for CCCCCCSc1nc(-c2ccc(C)cc2)nn1C(=O)N(C)C
200

Note down IC50 recorded for CSc1nc(-c2ccc(OC(F)(F)F)cc2)nn1C(=O)N(C)C
800

Note down IC50 recorded for CSc1nc(-c2ccc(C)cc2)nn1C(=O)N(C)c1ccccc1
2400

Note down IC50 recorded for CSc1nc(-c2ccc(Cl)cc2)nn1C(=O)N(C)c1ccccc1
1400

---

Sequence of the target: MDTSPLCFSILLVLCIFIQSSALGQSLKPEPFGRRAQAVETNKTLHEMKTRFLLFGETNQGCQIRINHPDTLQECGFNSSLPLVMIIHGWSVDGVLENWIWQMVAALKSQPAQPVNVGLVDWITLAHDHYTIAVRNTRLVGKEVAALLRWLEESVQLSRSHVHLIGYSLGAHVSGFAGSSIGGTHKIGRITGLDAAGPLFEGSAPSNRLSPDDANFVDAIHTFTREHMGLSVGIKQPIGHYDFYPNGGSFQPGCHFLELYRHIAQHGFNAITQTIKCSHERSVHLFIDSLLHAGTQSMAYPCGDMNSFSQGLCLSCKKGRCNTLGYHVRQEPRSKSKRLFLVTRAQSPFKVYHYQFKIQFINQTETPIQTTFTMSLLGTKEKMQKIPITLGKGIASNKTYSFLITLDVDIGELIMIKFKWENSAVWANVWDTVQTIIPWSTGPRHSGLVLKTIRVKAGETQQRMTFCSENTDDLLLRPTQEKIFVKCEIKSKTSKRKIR
Let's look at some molecules and their measured pIC50.
The value called pIC50 is obtained by taking minus log10 of the concentration in mol/L.

| record.smiles | measurement.name | reading |
| --- | --- | --- |
| CCOc1nn(-c2cccc(OCc3ccccc3)c2)c(=O)o1 | pIC50 | 4.82 |

Next, consider the following molecule.
Note down pIC50 recorded for COc1nn(-c2ccc(NC(=O)c3ccc(C(C)(C)C)cc3)cc2)c(=O)o1
5.74
